- Test details: yeast display, Sf9 membrane polyspecificity reagent, FACS + sequencing; frameworks hold sequencing errors
Quantity name: polyreactivity (PSR sort gate)

1) QVQLVESGGGLVQAGGSLRLSCAASGRIFVSHAMGWYRQAPGKERALVAGITWTSGSTYYADSVKGRFTISRDNAKNTVYLQMKSLKPEDTAVYYCAAEYWYGNAFDYWGLGTQVTVSS : low polyreactivity
2) QVQLGESGGGLVQAGGSLRLSCAASGGIINYYAMGWYRQAPGKEWELVAAITSAGSTYADSVKGRFTISRDNAKNTVYLQMNSLKPDDSAVYYCNAVGFVLKVGYYLIGYAKWYDYWGQGTHVTVSS : low polyreactivity

###

- Test details: yeast display, Sf9 membrane polyspecificity reagent, FACS + sequencing; frameworks hold sequencing errors
Quantity name: polyreactivity (PSR sort gate)

1. QVQLVESGGGLDQAGGSLRLSCAASGFIFLDYAMGWYRRAPGKERELVAAISSRGARTYYADSVKGRFTISRDNAKNTFYLQMNSLKPEDTAVYYCAARGPLDRYGYWGQGTQVTVSS : high polyreactivity
2. QVQLVESGGGLVQAGGSLRLSCAASGRIFQGNAMGWYRQAPRKERELVAAISWRGGRTYYADSVKGRFTISRAYAKNTVYLQMNSLKPEDTAVYYCAAKAYREDEGYWGQGTQVTVSS : high polyreactivity

###

- Test details: yeast display, Sf9 membrane polyspecificity reagent, FACS + sequencing; frameworks hold sequencing errors
Quantity name: polyreactivity (PSR sort gate)

Completed entries (count: 8):
1) QVQLVESGGGLVQAGGSLRLSCAASGTIFGYYAMGWYRQAPGKERELVAAITSDGDTYYADSVKGRFTISRDNAKNTVYLQMNSLIPEDTAVYYCNATYGGPYYIQYDYWGQGTQVTVSS : low polyreactivity
2) QVQLVESGGGLVQAGGSLRLICAASGIIFYVNAMGWYRQAPGKERELVAAITRGGTTYYADSVKGRFTISRDNAKNTVYLQMNSLKPEDTAVYYCAARLRYTTGIYYYWGQGTQVTVSS : high polyreactivity
3) QVQLLESGGGLVQAGGSLRLSCAASGFIFYEYAMGWYRQAPGKERELVAAITSGGSTDYADSVKGRFTISRDNAKNTVYLQMNSLKPEDTAVYYCNADLFTGYYWYNYWGQGTQVTVSS : low polyreactivity
4) QVQLVESGGGLVQAGGSLRLSCAASGFIFDNNAMGWYRQAPGKERELVATITSGGRTNYADSVKVRFTISRDNAKNTVYLQMNSLKPEDTAVYYCAAGYYLGSRRKTRDYWGQGTQVTVSS : low polyreactivity
5) QVQLVESGGGLVQAGGTLRLSCAASGITFTGNDMGWYRQAPGKERELVAAISNRGGSTYYADSVKGRFTISRDNAKNTVYLQMNSLKPEDTAVYYCRTSTPRRVSGNYWGQGTQVTVSS : high polyreactivity
6) QVQLVESGGGLVQAGGSLRLSCAASGRIFRVNALGWYRQATRKERELVAGITQGDGSTYYADSVKGRFTISRDNAKNTVYLQMNSLKPEDTAVYYCAAEGFYTTGSPYSGGLDYWGQGTQVTVSS : low polyreactivity
7) QVQLVESGGGLVQAGGSLRLSCAASGLIFGTYAMGWYREARGIERELVAAITSGGRTYYADSVKGRFTISRDNAKNTVYLQLNSLKPEATAVYYCAAVLSQWGAVFLYVLSTGLDYWGQGTQVTVSS : low polyreactivity
8) QVQLVESGGGLVQAGGSLRLICAASGATFYFYAMGWYREAPGKERELVAAISKRGTSTYYADSVKWRFTISRDNAKNTVYLQLTSLKPEDTAVYFCAADAPRGYNYWGQGTQVTVSS : high polyreactivity

Exercise: Give its polyreactivity (PSR sort gate) value. Item: QLQLVESGGGLVQAGGSLRLSCAASGLIFYDNMGWYRQAPGKERELVAAISSSGGSTSYADSVKGRFTISRDNAKNTVYLHMNSLKPEDTAVYYCAADSYPAYLGFVGFDYWGQGTQVTVSS
Solution: low polyreactivity

Exercise: Give its polyreactivity (PSR sort gate) value. Item: QVQLVESGGGLVQAGGSLRLSCAASGRTSAIYDMGWYRQAPGKERDLVAAIDYSDGSTYYADSVKGRFTISRDNAKYTVYLQMNSLKPEDTAVYYCAADYDAIYLWWGYDYWGQGTQLTVSS
Solution: low polyreactivity

Exercise: Give its polyreactivity (PSR sort gate) value. Item: QVQLVESGGGLVQAGGSLRLSCAASGSTFSYNAMGWYRQAPGKVRELVASINSRGGTTYYADSVKGRFTISRDNAKNTVYLQMNSLKPEDTAVYYCATDVYRLGEYDYWGQGTQVTVSS
Solution: low polyreactivity
